Biological target: Adenylate kinase 1 (AK1) (Homo sapiens, UniProt P00568)
Construct: purchased Novus Biologicals NBP1-50855
Sequence (P00568 1-194): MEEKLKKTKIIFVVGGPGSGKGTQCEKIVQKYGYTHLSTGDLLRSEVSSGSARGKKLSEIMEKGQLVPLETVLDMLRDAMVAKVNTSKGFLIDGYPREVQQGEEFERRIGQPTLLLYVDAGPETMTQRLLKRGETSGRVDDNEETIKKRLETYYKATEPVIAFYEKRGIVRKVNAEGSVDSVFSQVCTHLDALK
Assay: Labeling of recombinant AK1 by 2-ad-BAD and nucleotide competition
Assay type: binding
Conditions: 150 μM competitor, 0.3 μM 2-ad-BAD
metric: competition of 2-ad-BAD labeling of recombinant AK1

Worked cases, answers included:
[[record]]
molecule = "NC(=O)C1=CN([C@@H]2O[C@H](COP(=O)(O)OP(=O)(O)OC[C@H]3O[C@@H](n4cnc5c(N)ncnc54)[C@H](O)[C@@H]3O)[C@@H](O)[C@H]2O)C=CC1 [NADH]"
result = "effectively competed"

[[record]]
molecule = "Nc1ncnc2c1ncn2[C@@H]1O[C@H](COP(=O)(O)OP(=O)(O)OC[C@H]2OC(O)[C@H](O)[C@@H]2O)[C@@H](O)[C@H]1O (stereo partly drawn) [ADPr, ADP-ribose]"
result = "to a lesser extent"

[[record]]
molecule = "NC(=O)c1ccc[n+]([C@@H]2O[C@H](COP(=O)([O-])OP(=O)(O)OC[C@H]3O[C@@H](n4cnc5c(N)ncnc54)[C@H](O)[C@@H]3O)[C@@H](O)[C@H]2O)c1 [NAD^+, Nicotinamide adenine dinucleotide]"
result = "to a lesser extent"

[[record]]
molecule = "NC(=O)c1cccc([C@@H]2O[C@H](COP(=O)(O)OP(=O)(O)OC[C@H]3O[C@@H](n4cnc5c(N)ncnc54)[C@H](O)[C@@H]3O)[C@@H](O)[C@H]2O)c1 [BAD, benzamide adenine dinucleotide]"
result = "effectively competed"

[[record]]
molecule = "Nc1ncnc2c1ncn2[C@@H]1O[C@H](COP(=O)(O)O)[C@@H](O)[C@H]1O [AMP]"
result = "effectively competed"


// next item, competition of 2-ad-BAD labeling of recombinant AK1 requested
Per the record, Nc1ncnc2c1ncn2[C@@H]1O[C@H](COP(=O)(O)OP(=O)(O)OP(=O)(O)O)[C@@H](O)[C@H]1O [ATP, adenosine triphosphate] has competition of 2-ad-BAD labeling of recombinant AK1 of effectively competed

###

Target: PARP-10 (Homo sapiens, UniProt Q53GL7)
Construct: Full length His6-PARP-1 and His6-SUMO-PARP-10 proteins we expressed and purified; His6 (N); SUMO (N); made in house
Sequence (Q53GL7 whole entry): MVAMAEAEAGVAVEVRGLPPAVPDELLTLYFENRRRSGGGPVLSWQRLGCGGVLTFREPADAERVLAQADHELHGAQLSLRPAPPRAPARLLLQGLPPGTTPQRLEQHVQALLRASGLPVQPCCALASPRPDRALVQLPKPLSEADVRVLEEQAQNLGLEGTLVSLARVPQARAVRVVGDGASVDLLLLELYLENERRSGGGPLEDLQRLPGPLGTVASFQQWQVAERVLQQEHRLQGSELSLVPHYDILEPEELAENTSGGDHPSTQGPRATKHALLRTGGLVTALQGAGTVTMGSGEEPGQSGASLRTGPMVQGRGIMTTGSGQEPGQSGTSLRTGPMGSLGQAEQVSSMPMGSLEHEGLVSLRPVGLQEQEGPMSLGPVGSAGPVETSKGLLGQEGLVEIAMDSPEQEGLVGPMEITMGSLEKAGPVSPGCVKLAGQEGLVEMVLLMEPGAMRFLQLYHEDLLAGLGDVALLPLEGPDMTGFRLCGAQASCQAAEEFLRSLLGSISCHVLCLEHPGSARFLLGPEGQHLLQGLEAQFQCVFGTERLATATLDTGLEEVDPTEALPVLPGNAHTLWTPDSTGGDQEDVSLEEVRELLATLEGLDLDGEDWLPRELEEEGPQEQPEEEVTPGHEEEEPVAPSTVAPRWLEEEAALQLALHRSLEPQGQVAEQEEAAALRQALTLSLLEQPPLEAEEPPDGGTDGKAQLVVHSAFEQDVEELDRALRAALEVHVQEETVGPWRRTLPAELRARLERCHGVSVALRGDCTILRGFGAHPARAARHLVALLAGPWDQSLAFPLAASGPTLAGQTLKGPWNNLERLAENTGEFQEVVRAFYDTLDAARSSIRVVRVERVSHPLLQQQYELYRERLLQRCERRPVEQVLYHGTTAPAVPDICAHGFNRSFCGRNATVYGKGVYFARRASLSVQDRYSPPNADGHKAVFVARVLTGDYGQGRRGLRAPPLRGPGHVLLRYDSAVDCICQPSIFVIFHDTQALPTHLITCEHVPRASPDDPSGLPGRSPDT
Assay: Competition labeling of PARP-10 by 2-ad-BAD
Format: binding
Conditions: 150 μM nucleotide, 0.3 μM 2-ad-BAD
metric: block of 2-ad-BAD labeling of PARP-10 by nucleotides

[[record]]
compound = "Nc1ncnc2c1ncn2[C@@H]1O[C@H](COP(=O)(O)OP(=O)(O)OC[C@H]2OC(O)[C@H](O)[C@@H]2O)[C@@H](O)[C@H]1O (stereo partly drawn)"
result = "did not block"

[[record]]
compound = "Nc1ncnc2c1ncn2[C@@H]1O[C@H](COP(=O)(O)OP(=O)(O)OP(=O)(O)O)[C@@H](O)[C@H]1O [ATP, adenosine triphosphate]"
result = "did not block"

[[record]]
compound = "NC(=O)c1cccc([C@@H]2O[C@H](COP(=O)(O)OP(=O)(O)OC[C@H]3O[C@@H](n4cnc5c(N)ncnc54)[C@H](O)[C@@H]3O)[C@@H](O)[C@H]2O)c1 [BAD, benzamide adenine dinucleotide]"
result = "reduced"

[[record]]
compound = "Nc1ncnc2c1ncn2[C@@H]1O[C@H](COP(=O)(O)OP(=O)(O)O)[C@@H](O)[C@H]1O"
result = "did not block"


Per the record, NC(=O)C1=CN([C@@H]2O[C@H](COP(=O)(O)OP(=O)(O)OC[C@H]3O[C@@H](n4cnc5c(N)ncnc54)[C@H](O)[C@@H]3O)[C@@H](O)[C@H]2O)C=CC1 has block of 2-ad-BAD labeling of PARP-10 by nucleotides of reduced

Per the record, NC(=O)c1ccc[n+]([C@@H]2O[C@H](COP(=O)([O-])OP(=O)(O)OC[C@H]3O[C@@H](n4cnc5c(N)ncnc54)[C@H](O)[C@@H]3O)[C@@H](O)[C@H]2O)c1 [NAD^+, Nicotinamide adenine dinucleotide] has block of 2-ad-BAD labeling of PARP-10 by nucleotides of reduced

All values here come from patent US12441757B2.
